Data origin, for the record: PubChem BioAssay (NCI)

test system: COLO 205 colon; test: NCI-60 one-dose screen, 48 h (100 = growth as untreated, 0 = no growth, -100 = all killed); details: 10 µM unless noted
Compounds without any hit were thinned out: in the full panel of roughly 83,000, 20% have a hit.
recorded metric: growth (%)
Value expressed in %; do not type the unit.

Solved entries:
compound | assayed target | recorded metric | quantitative result
C[C@H]1[C@H]2[C@H]3CC[C@@H]4[C@@]5(C)C/C(=C/c6cccnc6)C(=O)C(C)(C)[C@@H]5CC[C@@]4(C)[C@]3(C)CC[C@]23CO[C@]1(C)[C@@H](C(=O)/C=C\c1cccnc1)C3 | COLO 205 colon | growth | -56.8
CS(=O)(=O)c1ccc(Nc2nc(N[C@H]3CCCC[C@H]3N)nc3cc[nH]c(=O)c23)cc1 | COLO 205 colon | growth | -3.93
C=C1C(=O)O[C@H]2[C@H]1CC/C(COC(=O)C(=O)c1c[nH]c3ccccc13)=C\CC[C@@]1(C)O[C@@H]21 | COLO 205 colon | growth | -62.2
Cc1c2c(c(C)c3c1oc1cc(O)ccc13)C(=O)N(CCN1CCCCC1)C2=O | COLO 205 colon | growth | 85.8
O=C1/C(=C\c2c[nH]c3ccccc23)c2ccccc2N1c1c(Cl)cccc1Cl | COLO 205 colon | growth | -100

Could you share which growth value was measured for COc1cc(-c2nc(N3CCN(C)CC3)c3ccccc3n2)cc(OC)c1OC ?
81.5

* * *

test system: ACHN renal; assay: NCI-60 one-dose screen, 48 h; conditions: 10 µM unless noted
Compounds without any hit were thinned out: in the full panel of roughly 83,000, 20% have a hit. Active and inactive are the calls of the source. Rule for the calls: active = growth percent below 10; inactive = the rest.
Could you please pick one outcome from this set? 1 for active, 0 for inactive

The examples below pair each entry with its known result.
smiles notation | assayed target | class label
N#Cc1c(-c2cccc(Cl)c2)cc(-c2cccc(Cl)c2)[nH]c1=O | ACHN renal | 0
COC(=O)[C@]12CC[C@@H](C)[C@H](C)[C@@H]1C1=CC[C@@H]3[C@@]4(C)C(C=O)=C[C@@](C)(COC(=O)c5ccco5)C4=CC[C@@]3(C)[C@]1(C)CC2 | ACHN renal | 1
N/C(=N\c1nc2ccccc2s1)NC(=O)Nc1cccc(Cl)c1 | ACHN renal | 0

--- query ---
What outcome does the record of this test show for O=c1[nH][n+](-c2ccc(Cl)cc2)no1 ?
0

* * *

Test system: NCI-H23 lung
Assay: NCI-60 one-dose screen, 48 h (100 = growth as untreated, 0 = no growth, -100 = all killed)
Conditions: 10 µM unless noted
Method: Growth inhibition of the NCI-H23 human Non-Small Cell Lung tumor cell line is measured as a screen for anti-cancer activity. Cells are grown in 96 well plates and exposed to the test compound for 48 hours. Compounds are tested at a single concentration, which is 10^-5 M for most compounds. The reported endpoint is percent growth (GI% or GIPRCNT), where numbers from 0 - 100% represent growth inhibition, and numbers from -100% - 0 represent cell death. […]
About 83,000 compounds went through this panel and 20% of them were active in at least one assay; those are over-represented in the sample as a whole.
Simple rule here: growth less than 70% is yes (1), otherwise no (0).

compound | assayed target | class label
COc1nc(N(C)O)nc(N(C)O)n1 | NCI-H23 lung | yes (1)
O=C1/C(=C/c2ccc(Br)cc2)C=C(c2ccccc2)N1CCc1ccccc1 | NCI-H23 lung | yes (1)
COc1cccc(-c2nc3sccn3c2/C=C/C(=O)c2ccc(C(F)(F)F)cc2)c1 | NCI-H23 lung | no (0)
N#Cc1c(N)nc2c(C#N)c(NC(=O)c3ccccc3)nn2c1-c1ccccc1 | NCI-H23 lung | no (0)

Determine if O=C(CSc1nccc(Nc2ccc(S(=O)(=O)Nc3nccs3)cc2)n1)c1ccc(F)cc1 shows growth strictly lower than 70%.
no (0)

Does this compound meet the criterion growth < 70%? CC1(C)OC2C(CO[Si](C)(C)C(C)(C)C)OC(n3c(I)c(C#C[Si](C)(C)C)c(=O)[nH]c3=O)C2O1 (configuration not stated)
no (0)

For COc1ccc2c(c1)[nH]c(=O)c1c3cccnc3cn21 , is the recorded growth below the cut-off of 70%?
yes (1)

I wonder whether COc1ccc(-c2nc3ccc4[nH]ncc4c3c3c2CCCC3)cc1B(O)O has growth below 70%. Can you tell?
no (0)

Does COc1cc(C2CC(=O)Nc3c2c(C)nn3-c2nc3ccccc3[nH]2)c(OC)c2c1OCO2 (configuration not stated) have growth strictly under 70%?
no (0)

Just wondering, is growth of COc1cccc(-c2nn(-c3ccccc3)cc2-c2ccnc(NCCCNC(=O)c3ccc(F)cc3)c2)c1 below 70%?
yes (1)

Field: below-cutoff. Rule: recorded growth strictly less than 70%. Subject: O=C(CCc1nnc(CN(c2ccccc2)c2ccccc2)o1)c1nc2ccccc2[nH]1
no (0)

Given Cc1ccc(C(=O)CSc2nc(-c3ccc(Br)cc3)c(C#N)c(=O)[nH]2)cc1 , is recorded growth strictly lower than 70%?
no (0)

Bench note: check whether O=c1cc(-c2ccc(Cl)cc2)[nH]c2ccccc12 shows growth below 70%
no (0)

Would you kindly verify if growth of C[n+]1cccc(CC(=O)NO)c1 is strictly less than 70%?
no (0)

Please let me know if CC(C)(C)OC(=O)Nc1ccc2c(c1)C(NC(=O)Nc1cccc(C#N)c1)CC(C)(C)O2 (configuration not stated) shows growth below 70%.
yes (1)

* * *

system: SW-620 colon; experiment: NCI-60 one-dose screen, 48 h (100 = growth as untreated, 0 = no growth, -100 = all killed); details: 10 µM unless noted
About 83,000 compounds went through this panel and 20% of them were active in at least one assay; those are over-represented in the sample as a whole.
Label label 1 for high-side growth (at or above 20%) and label 0 for low-side growth (below it).

smiles notation | class label
COc1cccc(Nc2nccc(Nc3ccc4[nH]ncc4c3)n2)c1 | label 0
Cc1cc(/C=C\c2ccc3ccccc3[n+]2C)c(O)c2ncccc12 | label 0
COc1cc(/C=C/C(=O)c2cccc(-n3cc(-c4ccccc4)[nH]c3=O)c2)ccc1O | label 0
COc1ccc(NC(=O)CSc2nc(C)c(C(C)=O)n2-c2ccc([N+](=O)[O-])cc2)cc1 | label 1
N#Cc1c(N)nc2c(C#N)c(NC(=O)c3ccccc3)nn2c1-c1ccccc1 | label 1

Now for another entry.
Please tell me: is the compound COc1ccc(-c2nc(SC(C)C)nc(NNC(N)=S)c2C#N)cc1 at or over 20% in terms of growth?
label 1

* * *

Each entry below lists one item and its recorded growth value.
Test system: TK-10 renal
Assay: NCI-60 one-dose screen, 48 h (100 = growth as untreated, 0 = no growth, -100 = all killed)
Settings: 10 µM unless noted
Experimental: Growth inhibition of the TK-10 human tumor cell line is measured as a screen for anti-cancer activity. Cells are grown in 96 well plates and exposed to the test compound for 48 hours. Compounds are tested at a single concentration, which is 10^-5 M for most compounds. The reported endpoint is percent growth (GI% or GIPRCNT), where numbers from 0 - 100% represent growth inhibition, and numbers from -100% - 0 represent cell death. For example, a value of 40 represents 60% growth inhibition. […]
This is part of a sample that, as a whole, favours compounds with a hit. Of some 83,000 tested, about 20% had one in any assay.
Just the number in %, nothing appended.

compound | recorded metric | unit name | quantitative result
COc1ccc(/C=N/C2=C(C#N)C(c3ccc(OC)cc3)c3ccc4ccccc4c3O2)cc1 (centres undefined) | growth | % | 87.1
O=S(=O)(O)c1ccc(N/N=C/c2ccccc2Cl)cc1 | growth | % | 104
Clc1ccc(-c2c3ccc(=[N+]4CCCCC4)cc-3oc3cc(N4CCCCC4)ccc23)cc1 | growth | % | -94.8

// next item, growth requested
Given Cc1cc(C)c(-c2c(C)cc(C)cc2CBr)c(CBr)c1 , state its recorded growth.
103

* * *

system: NCI-H23 lung; experiment: NCI-60 one-dose screen, 48 h; conditions: 10 µM unless noted
This is part of a sample that, as a whole, favours compounds with a hit. Of some 83,000 tested, about 20% had one in any assay. The source made the active and inactive calls. The calls were made as follows: active = growth percent below 10; inactive = the rest.
Reply using exactly one outcome from TRUE = active, FALSE = inactive

Example entries begin here.
compound | class label
COc1ccc(/C=N/C2=C(C#N)C(c3ccc(OC)cc3)c3ccc4ccccc4c3O2)cc1 (stereo not drawn) | FALSE
COc1ccc(-c2nc(SCCC(C)C)nc(N/N=C\c3cccc([N+](=O)[O-])c3)c2C#N)cc1 | FALSE
Nc1nc(N)c2c(n1)NC(c1ccccc1)C1CCc3ccccc3C1=N2 (stereo not drawn) | FALSE
CCCCC1CCCCN1C(=O)OCC (stereo not drawn) | FALSE
Cc1ccc(NS(=O)(=O)c2ccc3c(c2)C2OCCC2C(c2ccc(C(=O)C(C)C)cc2)N3)cc1C (stereo not drawn) | FALSE

Outcome logged for COC(=O)[C@]12CC[C@@H](C)[C@H](C)[C@@H]1C1=CC[C@@H]3[C@@]4(C)C(C=O)=C[C@@](C)(COC(C)=O)[C@@H]4C(=O)C[C@@]3(C)[C@]1(C)CC2 in this assay:
FALSE

Just curious, what result did COc1ccc(S(=O)(=O)NCCNc2nccc(-c3c(-c4cccc(F)c4)nc4sccn34)n2)cc1 get here?
FALSE

What did the test return for NC(=N\N=C/c1cccc([N+](=O)[O-])c1)/C(N)=N\N=C/c1cccc([N+](=O)[O-])c1 ?
FALSE

Check the results log: what was the call for N=C1C(c2nc(-c3ccc(Br)cc3)cs2)=C(O)CN1Cc1cccnc1 ?
FALSE

What was the test verdict on CC1CC2Oc3ccc(Cl)cc3C(=O)N2O1 (stereo not drawn) ?
FALSE

// param item: O=C(O)c1ccc2c(c1)CCC2 ; yields the recorded call
FALSE

Query: recorded result category for COc1ccc(-c2nc(SCCC(C)C)nc(N/N=C\c3cccc(Cl)c3)c2C#N)cc1 in this test
FALSE

Look up the recorded call for O=C1Nc2ccccc2/C1=C/c1cn(C(=O)c2c(Cl)cccc2Cl)c2ccccc12 in this test.
FALSE

// return assay outcome for Cc1cc(NCc2cc(Nc3ccnc4cc(Cl)ccc34)ccc2F)nc(N2CCCC2)n1
FALSE

Could you check what this test reported for Cc1ccc(-c2c(-c3ccccc3)c(=O)oc3ccc(C)cc23)cc1 ?
FALSE

State the result this test recorded for CCN1CCN(c2nc(C)cc(NCc3cc(Nc4ccnc5cc(Cl)ccc45)ccc3F)n2)CC1 .
FALSE

Hi team, can someone confirm the assay call for C#Cc1cccc(NC(=O)c2ccc(NC(=O)CCl)cc2)c1 ?
TRUE

For CC(C)C(=O)Nc1n[nH]c2cc(-c3cccc(NS(=O)(=O)C4CC4)c3)ccc12 , what call appears in the results of this test?
FALSE

Tell me the assay call for CCN(CC)S(=O)(=O)c1cccc(-c2ccc3c(NC(=O)C4CC4)n[nH]c3c2)c1 please.
FALSE

In this assay, the call recorded for COc1cccc(-c2nn(-c3ccccc3)cc2-c2ccnc(NCCNC(=O)Nc3ccc(Cl)c(Cl)c3)c2)c1 was what?
FALSE

GET /call?item= COc1ccc(/C=c2\nc3n(-c4ccccc4)c4nc5c6c(sc5c(=N)n4n-3c2=O)CCCC6)cc1 returns the recorded outcome of this test.
FALSE

Can you look up the reported call for CCCCN(CCCC)CC(C)(C)C(O)c1ccc(OC)c2ccccc12 (stereo not drawn) for me?
TRUE

Which result was noted for this compound in the test: Cc1nc2c(c(N3CCCc4ccccc43)n1)CCC2
FALSE
